Form field: pKα at 37 °C (midpoint of the main conformational transition) (one value per entry).
- Test Summary: Far-UV circular dichroism pH titration, midpoint of conformational transition (pKα)
- Type: physicochemical
- Condition Parameters: far-UV CD intensity at 220 nm vs pH; peptide 30-50 μM in 5 mM Tris amine titrated with HClO4; 37 °C (310 K); average of two or more independent experiments
Where no end group is shown, it is not given here.
# print the numeric value only

Worked cases, answers included:
Substance	Recorded Number
KKHLLAHLLHLLALLALHLLHALKHK-NH2 [LAH6-L1]	4.45
KKALLAXALXLLALLALXLAXALKKA-NH2 [LADap4-L1, LAH4-L1 derivative comprising four Dap residues]	6.64

Asked: Quick one: pKα at 37 °C (midpoint of the main conformational transition) for KKXLLAXLLXLLALLALXLLXALKXK-NH2 [LADap6-L1, 26-residue peptide with six Dap residues] ?
Given back: 5.67

Asked: Quick one: pKα at 37 °C (midpoint of the main conformational transition) for KKALLAXALXLLALLALXLAXALKKA-NH2 [LADap(Me)4-L1, LAH4-L1 derivative comprising four N-methylated Dap residues] ?
Given back: 6.62
